Listed here: items and their measured binding signal.
- System: AGO2 A367P (Homo sapiens, UniProt Q9UKV8 1-859, A367P;S387D;S824A;S828D;S831D;S834A)
- Sequence (Q9UKV8 whole entry A367P/S387D/S824A/S828D/S831D/S834A): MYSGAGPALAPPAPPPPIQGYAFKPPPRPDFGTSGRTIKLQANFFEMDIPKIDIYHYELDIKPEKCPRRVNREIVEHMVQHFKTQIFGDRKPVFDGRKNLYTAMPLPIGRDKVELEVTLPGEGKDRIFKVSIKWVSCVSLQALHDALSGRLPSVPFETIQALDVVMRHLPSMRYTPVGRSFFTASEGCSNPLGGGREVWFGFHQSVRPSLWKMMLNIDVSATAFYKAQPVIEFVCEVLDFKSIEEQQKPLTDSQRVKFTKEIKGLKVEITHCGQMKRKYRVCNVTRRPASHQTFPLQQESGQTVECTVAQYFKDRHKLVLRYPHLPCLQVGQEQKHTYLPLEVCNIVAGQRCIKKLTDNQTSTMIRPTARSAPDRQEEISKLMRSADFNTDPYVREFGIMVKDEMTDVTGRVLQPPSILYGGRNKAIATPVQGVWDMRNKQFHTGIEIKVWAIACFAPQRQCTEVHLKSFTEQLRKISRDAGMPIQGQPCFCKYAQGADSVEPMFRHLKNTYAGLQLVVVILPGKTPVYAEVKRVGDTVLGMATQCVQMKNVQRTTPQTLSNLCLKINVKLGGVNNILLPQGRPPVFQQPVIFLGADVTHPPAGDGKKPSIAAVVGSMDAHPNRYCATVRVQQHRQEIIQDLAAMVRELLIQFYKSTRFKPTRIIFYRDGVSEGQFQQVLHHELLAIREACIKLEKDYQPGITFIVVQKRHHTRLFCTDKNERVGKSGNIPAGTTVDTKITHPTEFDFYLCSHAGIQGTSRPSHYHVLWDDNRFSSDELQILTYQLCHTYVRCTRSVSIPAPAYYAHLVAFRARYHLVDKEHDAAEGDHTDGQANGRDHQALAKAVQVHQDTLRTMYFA
- Measurement Description: RNA Bind-n-Seq (nitrocellulose filter binding and sequencing); miR-122 guide loaded in AGO2; 60 min incubation; 30 mM Tris pH 8.0, 100 mM potassium acetate, 2 mM magnesium acetate, 0.5 mM TCEP, 0.005% NP-40, 0.01 mg/ml yeast tRNA; 3 nM AGO2-miR-122, 100 nM RNA library; 60; high values mean tight binding
- Cond: protein: recombinant; tags: His6 (N-terminal, pFastBac HTA)

Please review the following examples before continuing.
INSERT INTO measurements (binder, value_observed) VALUES
  ('ACGCTTCG (ssRNA, constant regions annealed to DNA blockers; guide miR-122 5'' phosphate) RNA 1: GAGUUCUACAGUCCGACGAUCCCAACACGCUUCGCACCUGGAAUUCUCGGGUGCCAA RNA 2: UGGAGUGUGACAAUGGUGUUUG DNA 1: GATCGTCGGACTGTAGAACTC DNA 2: TTGGCACCCGAGAATTCCA', '0.139 fold enrichment over input'),
  ('GTATCCCA (ssRNA, constant regions annealed to DNA blockers; guide miR-122 5'' phosphate) RNA 1: GAGUUCUACAGUCCGACGAUCCCAACGUAUCCCACACCUGGAAUUCUCGGGUGCCAA RNA 2: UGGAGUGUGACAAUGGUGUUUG DNA 1: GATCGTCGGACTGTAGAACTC DNA 2: TTGGCACCCGAGAATTCCA', '0.408 fold enrichment over input'),
  ('ATGCTCCA (ssRNA, constant regions annealed to DNA blockers; guide miR-122 5'' phosphate) RNA 1: GAGUUCUACAGUCCGACGAUCCCAACAUGCUCCACACCUGGAAUUCUCGGGUGCCAA RNA 2: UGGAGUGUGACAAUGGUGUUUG DNA 1: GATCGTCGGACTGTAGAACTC DNA 2: TTGGCACCCGAGAATTCCA', '2.6 fold enrichment over input'),
  ('ACGTTCTA (ssRNA, constant regions annealed to DNA blockers; guide miR-122 5'' phosphate) RNA 1: GAGUUCUACAGUCCGACGAUCCCAACACGUUCUACACCUGGAAUUCUCGGGUGCCAA RNA 2: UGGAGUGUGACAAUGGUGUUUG DNA 1: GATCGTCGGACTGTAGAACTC DNA 2: TTGGCACCCGAGAATTCCA', '0.184 fold enrichment over input'),
  ('ATGCCTCA (ssRNA, constant regions annealed to DNA blockers; guide miR-122 5'' phosphate) RNA 1: GAGUUCUACAGUCCGACGAUCCCAACAUGCCUCACACCUGGAAUUCUCGGGUGCCAA RNA 2: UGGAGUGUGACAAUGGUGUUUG DNA 1: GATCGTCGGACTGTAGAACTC DNA 2: TTGGCACCCGAGAATTCCA', '0.307 fold enrichment over input'),
  ('ACACTTCG (ssRNA, constant regions annealed to DNA blockers; guide miR-122 5'' phosphate) RNA 1: GAGUUCUACAGUCCGACGAUCCCAACACACUUCGCACCUGGAAUUCUCGGGUGCCAA RNA 2: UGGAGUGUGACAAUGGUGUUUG DNA 1: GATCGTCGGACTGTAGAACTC DNA 2: TTGGCACCCGAGAATTCCA', '0.201 fold enrichment over input'),
  ('ACGCCTCA (ssRNA, constant regions annealed to DNA blockers; guide miR-122 5'' phosphate) RNA 1: GAGUUCUACAGUCCGACGAUCCCAACACGCCUCACACCUGGAAUUCUCGGGUGCCAA RNA 2: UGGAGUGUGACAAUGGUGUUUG DNA 1: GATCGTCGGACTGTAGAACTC DNA 2: TTGGCACCCGAGAATTCCA', '0.316 fold enrichment over input');

For the binder GTGCCTCA (ssRNA, constant regions annealed to DNA blockers; guide miR-122 5' phosphate) RNA 1: GAGUUCUACAGUCCGACGAUCCCAACGUGCCUCACACCUGGAAUUCUCGGGUGCCAA RNA 2: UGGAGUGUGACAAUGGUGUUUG DNA 1: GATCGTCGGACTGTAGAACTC DNA 2: TTGGCACCCGAGAATTCCA , what binding signal is on record?
0.232 fold enrichment over input
